Tested on: intracellular cAMP levels in astrocytes
Assay: FRET measurements of cAMP in living primary astrocytes transfected with Epac1-camps
Conditions: read-out: concentration of ADR at which 50% of maximum cAMP increase was observed (EC50); maximum YFP/CFP ratio response, Epac1-camps, dose-response
MEASUREMENT NAME: EC50 (nM)

compound="CNCC(O)c1ccc(O)c(O)c1 (stereo not shown)" measurement_name=EC50 result_units=nM measured_result=29
